Origin of the recorded values: patent US12544371B2

test: Phase 1 single ascending dose study (Compound 1 Test 101), healthy subjects; format: in vivo, human; conditions: human, in vivo
Reported property: Tmax
I'd appreciate it if you wrote the number followed by its unit.

Request: Given the entry Cc1cccc(F)c1C(=O)Nc1cnc(-c2cc3c(cc2Cl)OC(F)(F)O3)cn1 [Compound 1] , report its measured Tmax.
Response: 4 h

* * *

assay: Phase 1 single ascending dose study (Compound 1 Test 101), healthy subjects; format: in vivo, human; conditions: human, in vivo, 2.1 mg/kg
Reported property: AUC(0-t) (ng·h/mL)
Just the number please, in ng·h/mL, no unit attached.

Request: Could you share which AUC(0-t) value was measured for Cc1cccc(F)c1C(=O)Nc1cnc(-c2cc3c(cc2Cl)OC(F)(F)O3)cn1 ?
Response: 6710
